Tested on: Hep3B
Note to self: use y only for GI50 readings below 5 µg/mL; a reading exactly at 5 µg/mL still gets n.

- Cc1cccc(-c2cc(-c3ccccn3)nc(N[C@@H]3O[C@H](CO)[C@@H](O)[C@H](O)[C@H]3O)n2)c1: y
- Cc1ccc(-c2cc(-c3cccnc3)nc(N[C@@H]3O[C@H](CO)[C@@H](O)[C@H](O)[C@H]3O)n2)cc1: n
- CC(=O)OC[C@H]1O[C@@H](Nc2nc(-c3ccc(C)cc3)cc(-c3ccccn3)n2)[C@H](OC(C)=O)[C@@H](OC(C)=O)[C@@H]1OC(C)=O: y
- Cc1ccc(-c2cc(-c3ccncc3)nc(N[C@@H]3O[C@H](CO)[C@@H](O)[C@H](O)[C@H]3O)n2)cc1: y
- Cc1ccccc1-c1cc(-c2cccnc2)nc(N[C@@H]2O[C@H](CO)[C@@H](O)[C@H](O)[C@H]2O)n1: y
- Cc1cccc(-c2cc(-c3ccncc3)nc(N[C@@H]3O[C@H](CO)[C@@H](O)[C@H](O)[C@H]3O)n2)c1: y
- CC(=O)OC[C@H]1O[C@@H](Nc2nc(-c3ccccn3)cc(-c3ccccc3C)n2)[C@H](OC(C)=O)[C@@H](OC(C)=O)[C@@H]1OC(C)=O: n
- CC(=O)OC[C@H]1O[C@@H](Nc2nc(-c3cccc(C)c3)cc(-c3ccccn3)n2)[C@H](OC(C)=O)[C@@H](OC(C)=O)[C@@H]1OC(C)=O: y
- Cc1ccccc1-c1cc(-c2ccccn2)nc(N[C@@H]2O[C@H](CO)[C@@H](O)[C@H](O)[C@H]2O)n1: n
- CC(=O)OC[C@H]1O[C@@H](Nc2nc(-c3ccc(C)cc3)cc(-c3cccnc3)n2)[C@H](OC(C)=O)[C@@H](OC(C)=O)[C@@H]1OC(C)=O: y
- Cc1ccccc1-c1cc(-c2ccncc2)nc(N[C@@H]2O[C@H](CO)[C@@H](O)[C@H](O)[C@H]2O)n1: y
- CC(=O)OC[C@H]1O[C@@H](Nc2nc(-c3ccncc3)cc(-c3cccc(C)c3)n2)[C@H](OC(C)=O)[C@@H](OC(C)=O)[C@@H]1OC(C)=O: n

----------
# key: entry, value: cytotoxicity at 24 h, 100 μg/mL
assay.procedure: LDH cytotoxic activity assay, FL
Type: cell-based
cond: human, FL cells (normal cells), as the column head prints, head prints FL, 100 μg/mL
test.readout: cytotoxicity at 24 h, 100 μg/mL (%)

• Cc1cccc(-c2cc(-c3ccccn3)nc(N[C@@H]3O[C@H](CO)[C@@H](O)[C@H](O)[C@H]3O)n2)c1 [Compound 4] = 40.2
• Cc1cccc(-c2cc(-c3cccnc3)nc(N[C@@H]3O[C@H](CO)[C@@H](O)[C@H](O)[C@H]3O)n2)c1 [Compound 5] = 36.4
• Cc1ccc(-c2cc(-c3ccccn3)nc(N[C@@H]3O[C@H](CO)[C@@H](O)[C@H](O)[C@H]3O)n2)cc1 [Compound 7] = 40.7
• Cc1ccc(-c2cc(-c3ccncc3)nc(N[C@@H]3O[C@H](CO)[C@@H](O)[C@H](O)[C@H]3O)n2)cc1 [Compound 9] = 36.5
• Cc1cccc(-c2cc(-c3ccncc3)nc(N[C@@H]3O[C@H](CO)[C@@H](O)[C@H](O)[C@H]3O)n2)c1 [Compound 6] = 41.9
• Cc1ccc(-c2cc(-c3cccnc3)nc(N[C@@H]3O[C@H](CO)[C@@H](O)[C@H](O)[C@H]3O)n2)cc1 [Compound 8] = 43.5
